Origin of values: PubChem BioAssay (NCI)

Tested on: NCI-H23 lung
Assay: NCI-60 one-dose screen, 48 h (100 = growth as untreated, 0 = no growth, -100 = all killed)
Details: 10 µM unless noted
Compounds without any hit were thinned out: in the full panel of roughly 83,000, 20% have a hit.
Form field: growth (one value per entry).
Assay metric: growth (%)

[
  {
    "Smiles code": "Cc1cc(C(c2ccccc2)c2ccccc2)ccc1NS(=O)(=O)c1ccccc1",
    "Assay value": 86.2
  },
  {
    "Smiles code": "O=C(CCl)N1c2cccc3cccc(c23)N(C(=O)CCl)C1c1cn(-c2ccccc2)nc1-c1cccc([N+](=O)[O-])c1",
    "Assay value": 90.1
  },
  {
    "Smiles code": "CCc1cc(Cc2cc(CC)cc(C(C)(C)C)c2O)c(O)c(C(C)(C)C)c1",
    "Assay value": 17.5
  },
  {
    "Smiles code": "CC(=O)c1ccc2c(c1)CCN2",
    "Assay value": 102
  },
  {
    "Smiles code": "C[C@@H]1CC[C@@H]2[C@@H]1[C@H](OC(=O)/C=C/c1ccccc1)[C@]1(CCCOCCOCCOCCOC(=O)CCCC[C@@H]3SC[C@@H]4NC(=O)N[C@@H]43)C[C@@H](OC(=O)CO)[C@@]2(C)O1",
    "Assay value": 102
  },
  {
    "Smiles code": "N#Cc1c(N)nc2c(nnn2-c2cccc(Br)c2)c1N",
    "Assay value": 89.5
  },
  {
    "Smiles code": "C[C@@H]1C(=O)N(C[C@@H](Cc2ccccc2)NC(=O)OCc2ccccc2)[C@]1(Cc1ccccc1)C(=O)OCc1ccccc1",
    "Assay value": 37.1
  },
  {
    "Smiles code": "COc1ccc(-n2nnc(C(=O)NCCc3c[nH]c4ccc(F)cc34)c2C)cc1",
    "Assay value": 98.5
  }
]

----------
Test system: TK-10 renal
Experiment: NCI-60 one-dose screen, 48 h
Conditions: 10 µM unless noted
Compounds without any hit were thinned out: in the full panel of roughly 83,000, 20% have a hit. Calls of active or inactive are those of the source. Rule for the calls: active = growth percent below 10; inactive = the rest.
Labels: class 1 = active, class 0 = inactive

[
  {
    "Molecule": "Clc1ccc2c(NCCCN3CCN(c4nc(N5CCOCC5)nc5ccccc45)CC3)ccnc2c1",
    "Study target": "TK-10 renal",
    "Assigned class": "class 1"
  },
  {
    "Molecule": "COc1ccc(OC)c(/C=C2\\COc3ccc(O)cc3C2=O)c1",
    "Study target": "TK-10 renal",
    "Assigned class": "class 0"
  },
  {
    "Molecule": "CN1C(=O)CCC(N2C(=O)c3cccc(NCCOCCOCCNC(=O)c4cc5c(o4)C(=O)c4ccccc4C5=O)c3C2=O)C1=O (centres undefined)",
    "Study target": "TK-10 renal",
    "Assigned class": "class 0"
  },
  {
    "Molecule": "CCOC(=O)c1cnn2c(-c3ccc(Cl)cc3)nc(NCc3ccccc3)nc12",
    "Study target": "TK-10 renal",
    "Assigned class": "class 0"
  },
  {
    "Molecule": "O=S(=O)(NCCNc1cc(-c2c(-c3cccc(O)c3)nc3sccn23)ccn1)c1ccc(Br)cc1",
    "Study target": "TK-10 renal",
    "Assigned class": "class 0"
  },
  {
    "Molecule": "Cl.Fc1c[c-]c(-c2ccccn2)c(F)c1.[Pt].c1ccc(P(c2ccccc2)C([PH+](c2ccccc2)c2ccccc2)[PH+](c2ccccc2)c2ccccc2)cc1",
    "Study target": "TK-10 renal",
    "Assigned class": "class 0"
  },
  {
    "Molecule": "C=C1C(=O)O[C@H]2[C@H]1CC/C(Cn1cc(CNCCc3c[nH]c4ccc(Cl)cc34)nn1)=C\\CC[C@@]1(C)O[C@@H]21",
    "Study target": "TK-10 renal",
    "Assigned class": "class 1"
  },
  {
    "Molecule": "COc1ccc(-n2nnc(C(=O)NCCc3c[nH]c4ccc(F)cc34)c2C)cc1",
    "Study target": "TK-10 renal",
    "Assigned class": "class 0"
  },
  {
    "Molecule": "Cn1nnnc1-c1ccc(N)cc1",
    "Study target": "TK-10 renal",
    "Assigned class": "class 0"
  }
]
